assay-overview: thallium flux in non-induced HEK293 cells, confirmation, counter-screen for KCNK9 inhibitor project, cell-based, second counter screen, non-induced KCNK9-HEK293 (AID 492997)
conditions-used: non-induced KCNK9-HEK293, FluxOR thallium flux, at 10 µM
Among all 4,900 compounds or so, about 2,000 (41%) were called active.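 Rule for the calls: active = thallium signal drop beyond 5 SD of the untreated control mean, on both duplicate plates; inactive = the rest.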 The set was probably picked from earlier hits. A selection follows.
Please state which outcome applies, choosing from true = active, false = inactive

COc1ccc(-c2nc(CCNC(=O)c3ccc(Br)o3)cs2)cc1	false
Cn1nc(-c2ccccc2)c(CSc2cccc(Cl)c2)c1Cl	true
COc1ccc(CCNc2ncnc3c2nnn3Cc2ccccc2)cc1	false
CN(CCOc1ccccc1)C(=O)c1cc(COc2c(F)cccc2F)on1	false
CCOC(=O)C1=C(C)Nc2sc(C(=O)c3ccc(Br)cc3)c(N)c2C1c1ccc(C(=O)OC)cc1 (stereo not given)	true
Cc1ncoc1C(=O)N1CCCC(C(=O)c2ccc3c4c(cccc24)CC3)C1 (stereo not given)	false

Dear colleague, could you share the recorded outcome for O=C(NC1Cc2ccccc2C1)c1cc(COc2cccc(C(F)(F)F)c2)on1 when you have a moment?
true

---

assay-overview: thallium flux in non-induced HEK293 cells, confirmation, counter-screen for KCNK9 inhibitor project, cell-based, second counter screen, non-induced KCNK9-HEK293 (AID 492997)
conditions-used: non-induced KCNK9-HEK293, FluxOR thallium flux, at 10 µM
In all, about 4,900 compounds went through this assay and about 2,000 (41%) were called active.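 How the source made its calls: active means thallium signal drop beyond 5 SD of the untreated control mean, on both duplicate plates; inactive means the rest.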 So high a share suggests a set chosen from earlier hits. The list is a sample of the results.
Give one outcome, nothing more. List: active, inactive

Take a look at these entries with their results.
O=C(Nn1c(SCc2ccc([N+](=O)[O-])cc2)nc2ccccc2c1=O)c1ccc(F)cc1	inactive
Cc1[nH]c2ccccc2c1CCN(Cc1cccs1)C(=S)NC(C)(C)C	inactive
COc1cccc(NC(=S)N(CCc2c(C)[nH]c3ccccc23)Cc2ccco2)c1	active
CCCN1C(=O)C(Cc2nc3ccccc3c(=O)n2-c2ccccc2)c2cc(C)ccc21 (stereo not given)	active

How did this test come out for CCC(C)(C)n1nnnc1C(c1cccs1)N1CCN(c2nc3ccccc3s2)CC1 (stereo not given) ?
active

---

assay-overview: thallium flux in non-induced HEK293 cells, confirmation, counter-screen for KCNK9 inhibitor project, cell-based, second counter screen, non-induced KCNK9-HEK293 (AID 492997)
conditions-used: non-induced KCNK9-HEK293, FluxOR thallium flux, at 10 µM
In all, about 4,900 compounds went through this assay and about 2,000 (41%) were called active.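 Rule for the calls: active = thallium signal drop beyond 5 SD of the untreated control mean, on both duplicate plates; inactive = the rest.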 So high a share suggests a set chosen from earlier hits. Not all results are given here.
Choose the fitting class; nothing outside active, inactive is accepted.

Some solved entries appear below for comparison.
Cc1ccc(OCc2cc(C(=O)N(C)CCc3ccccc3)no2)cc1C	inactive
COc1ccc(OC)c(-c2csc(-c3cccs3)n2)c1	active
CC1(C)CC(N2CCN(C(c3ccccc3)c3ccccc3)CC2)=CC(=[N+]2CCCCC2)C1	active
CCCCN(Cc1ccccc1)C(=O)C1CCN(Cc2sccc2C)CC1	inactive
O=C1c2ccccc2C2=Nc3ccccc3SC(c3ccccc3F)C12 (stereo unspecified)	active

Let us examine a further case.
Recorded test outcome, item CCCCNC(=S)N/N=C1\CCCCc2ccccc21
inactive

---

assay-overview: thallium flux in non-induced HEK293 cells, confirmation, counter-screen for KCNK9 inhibitor project, cell-based, second counter screen, non-induced KCNK9-HEK293 (AID 492997)
conditions-used: non-induced KCNK9-HEK293, FluxOR thallium flux, at 10 µM
About 2,000 (41%) of roughly 4,900 compounds were called active.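 Rule for the calls: active = thallium signal drop beyond 5 SD of the untreated control mean, on both duplicate plates; inactive = the rest.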 The set was probably picked from earlier hits. A selection follows.
Give your call using only these classes: active, inactive

Answered cases to consult:
Cc1ccc(C(=O)c2c(NC(=O)c3ccccc3)sc(C)c2C)cc1	inactive
CCOC(=O)[C@@H]1[C@H]2COc3ccc(Br)cc3[C@H]2N2C(=O)N(c3ccc(Cl)cc3)C(=O)[C@@]12C	active
CCN(CC)S(=O)(=O)c1ccc(N(C)Cc2ccc(C(F)(F)F)cc2)nc1	active
CCCCCCCCCCOC(=O)Cn1c(COc2cccc(OC)c2)[n+](C)c2ccccc21	active

From here, focus on the item given below.
Check the results log: what was the call for CCOc1ccccc1NC(=O)C1CCCN(S(=O)(=O)c2ccccc2)C1 (configuration not stated) ?
inactive
